Catalogue of apparent KD of MS2 coat protein values
test system: MS2 coat protein; experiment: apparent KD of MS2 coat protein; designed switch direction (-1 OFF switch, 1 ON switch): 1; higher = weaker reporter binding; conditions: Eterna round: R95; input ligand: FMN 200 uM
measure_name: apparent KD of MS2 coat protein (nM)

ordered_residues="AGUCCAGCCUGAGCUGGACAAAAGCAUGUACAUGAGGAUCACCCAUGUCAUGUACAAGCUUUUUGCACGUCUUAAAA [Mat - hsa-mir-208a - Mod of JL - D13] (puzzle: Sensor for hsa-mir-208a)" assay_result=1120
ordered_residues="GGUCCAGCCUGAGCUGGACCACAGCAUGUACAUGAGGAUCACCCAUGUCAUGUACAAGCUUUUUGUUUAAAAUAAAA [Sensorship 13 - Jieux - Sensor for hsa-mir-208a] (puzzle: Sensor for hsa-mir-208a)" assay_result=261
ordered_residues="UGUCCAGCCUGAGCUGGACAAAAGCAUGUACAUGAGGAUCACCCAUGUUCAUGUACAAGCUUUUUGCUCGUCUUAGU [salish99_208a_r3_065] (puzzle: Sensor for hsa-mir-208a)" assay_result=489
ordered_residues="AGUCCAGCCUGAGCUGGACAAAAGCAUGUACAUGAGGAUCACCCAUGUCAUGUACAAGCUUUUUGCUCGUCAUAAAA [Mat - hsa-mir-208a - Mod of JL - D8] (puzzle: Sensor for hsa-mir-208a)" assay_result=578
ordered_residues="GGAGCCGGUACUGAGGAUAUUCGUAUUAAAACAUGAGGAUCACCCAUGUAGGCCAGAAGGCCUUGGGAGAAGGCAGACCAGCUCG [Atgexeedri - 5] (puzzle: Same State 2)" assay_result=14.3
ordered_residues="GGAGCCGGUACUGAGGAUAUUCAUUUUAAAACAUGAGGAUCACCCAUGUAGGCCAGAAGGCCUUGGGAGAAGGCAGACCAGCUCG [Atgexeedri - 6] (puzzle: Same State 2)" assay_result=20.9
ordered_residues="GGAGAACAUGAGGAUCACCCAUGUGGAUGAGCGCUAGGAUAUGCGGGAGGGUGAAGAGAAGCAGAAGGAGUAGAUA [JR_SS1_Sub034] (puzzle: Same State 1)" assay_result=63.9
ordered_residues="AACAAUCUAUCUGAGGAUAUCAUGAUAAGAACAUGAGGAUCACCCAUGUGCAGGAAAACUGCAUAUGAGAAGGCAGAUAGAUUGG [Mat - Same State 2 - Mod - D19] (puzzle: Same State 2)" assay_result=42.5
ordered_residues="AACAAUCUAUCUGAGGAUAUCAUUAAAUAAACAUGAGGAUCACCCAUGUGCAGGAAAACUGCAUAUGAGAAGGCAGAUAGAUUGA [salish99_ss2_r3_029] (puzzle: Same State 2)" assay_result=12.3
ordered_residues="UUGGUGUAGAUACAGGAUAUGUUGCUUGUUACAUGAGGAUCACCCAUGUAUCUAUGAGAUUAAAUGCAGAAGGGUGCACAUCACU [salish99_ss2_r3_091] (puzzle: Same State 2)" assay_result=52.9
